- System: A549 human lung adenocarcinoma epithelial cell line
- Experiment description: MTT cytotoxicity test, A549
- Format: cell-based
- Setup conditions: 72 h incubation
# log10 of CC50 listing for each entry below
Would you kindly interpret these values as log10 of CC50 expressed in µM?

{"Compound": "CN1CC2(NC(=S)N(Cc3cccc(Cl)c3)C2=O)C2(C1)C(=O)Nc1ccccc12 (stereo not shown)", "Assayed system": "A549 human lung adenocarcinoma epithelial cell line", "log10 of CC50": 1.73}
{"Compound": "CN1CC2(NC(=S)N(c3ccc(F)c(Cl)c3)C2=O)C2(C1)C(=O)Nc1ccc(Cl)cc12 (stereo not shown)", "Assayed system": "A549 human lung adenocarcinoma epithelial cell line", "log10 of CC50": 1.15}

## Input Endpoint output: log10 of CC50 of C=CCN1C(=O)C2(CN(C)CC23C(=O)Nc2ccccc23)NC1=S (stereo not shown) . Value?
## Output 1.66

## Input Endpoint output: log10 of CC50 of COc1cc([C@@H]2c3cc4c(cc3[C@@H](O[C@@H]3O[C@@H]5CO[C@@H](C)O[C@H]5[C@H](O)[C@H]3O)[C@H]3COC(=O)[C@H]23)OCO4)cc(OC)c1O [Etoposide, reference compound] . Value?
## Output -0.52

## Input Endpoint output: log10 of CC50 of CN1CC2(NC(=[Se])N(c3ccc(F)c(Cl)c3)C2=O)C2(C1)C(=O)Nc1ccc(Cl)cc12 (stereo not shown) . Value?
## Output 1.42
